Biological target: Cytochrome P450 3A4 (Homo sapiens) (UniProt P08684)
Sequence (P08684 whole entry, looked up): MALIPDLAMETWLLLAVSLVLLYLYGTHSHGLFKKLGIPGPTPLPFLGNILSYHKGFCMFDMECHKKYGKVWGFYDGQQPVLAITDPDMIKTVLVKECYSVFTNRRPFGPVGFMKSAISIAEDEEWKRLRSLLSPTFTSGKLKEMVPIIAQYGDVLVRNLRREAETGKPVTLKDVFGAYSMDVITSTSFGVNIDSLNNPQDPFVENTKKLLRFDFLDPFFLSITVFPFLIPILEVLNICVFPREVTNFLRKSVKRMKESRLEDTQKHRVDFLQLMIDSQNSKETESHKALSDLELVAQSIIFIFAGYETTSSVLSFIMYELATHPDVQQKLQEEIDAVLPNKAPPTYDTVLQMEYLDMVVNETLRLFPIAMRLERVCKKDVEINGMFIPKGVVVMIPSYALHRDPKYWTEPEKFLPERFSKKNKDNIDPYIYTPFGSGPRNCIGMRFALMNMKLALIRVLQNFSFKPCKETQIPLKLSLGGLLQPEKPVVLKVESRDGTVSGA
Assay: qHTS Assay for Inhibitors and Substrates of Cytochrome P450 3A4 (AID 884); note: nearly all actives have a fitted effect of over 50% in size
Conditions: recombinant CYP3A4, Luciferin-PPXE luminescence; series mostly up to 57.1 µM
Inconclusive results are not listed. Activity calls are given as the source filed them. Calls come from the whole dose curve; as a rule, active = well fitted inhibition curve with a large enough effect; inconclusive = small, poorly fitted or top-dose-only effect; inactive = no such curve, though single readings can be large or run the other way.
Classes to choose from: active, inactive

>>> category_label("OCC1OC(Oc2cccc3cccnc23)C(O)C(O)C1O (stereo not drawn)")
"inactive"
>>> category_label("O=c1cc(-c2ccccc2O)oc2cc(O)ccc12")
"inactive"
>>> category_label("COc1cc(-c2coc3cc(OC)c(OC)c(OC)c3c2=O)cc(OC)c1OC")
"inactive"
>>> category_label("CC(=O)O[C@]1(C)CC[C@]23CC1C(C)(C)C2CC[C@@H]3C (stereo partly drawn)")
"inactive"
>>> category_label("COC(=O)c1cc(=O)c(O)c2c(O)c(O)ccc2c1")
"inactive"

Kindly review the next compound as well.
// return assay outcome for CC1C(=O)CCC2[C@]1(C)CCC1[C@]2(C)CC[C@@]2(C)C3CC(C)(C)CC[C@]3(C)CC[C@@]12C (stereo partly drawn)
inactive
